We begin with a simple list: items and their reported T/C.
test system: L1210 leukemia ip in BDF1 mice, survival T/C; assay: NCI In Vivo Anticancer Drug Screen. Data for tumor model L1210 Leukemia (intraperitoneal) in B6D2F1 (BDF1) mice; conditions: endpoint: mean survival time; dose: 200.0 mg/kg/injection; schedule: Q01DX009 (ip); vehicle: acetone; higher = longer survival
Toxic doses and inconclusive results are not listed.

- MOLECULE: "CC1(C)/C(=C\\C(=O)O)C2C=CC1C2 (centres undefined)"
  T/C: "91 % of control"
- MOLECULE: "O=C(O)C1C2CC(C(Br)C2Br)C1C(=O)O (centres undefined)"
  T/C: "93 % of control"
- MOLECULE: "CC(=O)[C@@]1(O)CC[C@H]2[C@@H]3C[C@H](C)C4=CC(=O)CC[C@]4(C)[C@H]3[C@@H](O)C[C@@]21C"
  T/C: "92 % of control"
- MOLECULE: "Br/C=C\\c1ccccc1"
  T/C: "95 % of control"

The measured values listed here are drawn from PubChem BioAssay AID248.
